FYI, the data here is from patent US20260217708A1.

# target system: system Xc^− (Homo sapiens)
# Sequence (Q9UPY5 1-501): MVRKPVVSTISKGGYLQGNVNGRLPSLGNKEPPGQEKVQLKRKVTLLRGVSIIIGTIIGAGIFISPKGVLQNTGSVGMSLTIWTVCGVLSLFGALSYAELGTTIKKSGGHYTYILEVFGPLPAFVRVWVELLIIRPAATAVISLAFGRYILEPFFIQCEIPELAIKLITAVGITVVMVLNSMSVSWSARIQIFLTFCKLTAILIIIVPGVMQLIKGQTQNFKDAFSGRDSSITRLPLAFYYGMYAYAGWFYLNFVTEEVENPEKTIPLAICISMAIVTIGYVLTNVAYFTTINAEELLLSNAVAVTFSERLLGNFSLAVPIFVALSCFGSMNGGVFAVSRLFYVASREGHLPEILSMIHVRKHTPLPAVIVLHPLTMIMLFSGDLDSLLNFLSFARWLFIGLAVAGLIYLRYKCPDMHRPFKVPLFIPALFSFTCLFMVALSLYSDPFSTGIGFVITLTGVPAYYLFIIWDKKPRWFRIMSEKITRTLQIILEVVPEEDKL
# Sequence (P08195 1-529 partner): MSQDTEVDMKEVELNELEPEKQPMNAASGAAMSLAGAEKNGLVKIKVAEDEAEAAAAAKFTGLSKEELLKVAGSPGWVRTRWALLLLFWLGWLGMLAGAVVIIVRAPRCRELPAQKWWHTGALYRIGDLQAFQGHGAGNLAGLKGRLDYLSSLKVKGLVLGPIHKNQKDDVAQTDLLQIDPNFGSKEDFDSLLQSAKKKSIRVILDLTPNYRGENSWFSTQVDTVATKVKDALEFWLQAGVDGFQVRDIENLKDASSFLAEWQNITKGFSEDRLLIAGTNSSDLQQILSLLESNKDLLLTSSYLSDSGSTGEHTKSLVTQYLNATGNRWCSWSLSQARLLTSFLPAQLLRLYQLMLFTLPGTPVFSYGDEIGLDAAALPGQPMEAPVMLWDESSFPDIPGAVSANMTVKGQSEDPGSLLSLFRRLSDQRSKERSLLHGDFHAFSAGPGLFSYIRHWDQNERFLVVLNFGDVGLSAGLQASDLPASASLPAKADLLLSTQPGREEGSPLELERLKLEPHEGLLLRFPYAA
# test method notes: Cystine-induced glutamate release assay
# Type: cell-based
# Design: endogenous in cells; host or cells: H4 cells
# condition set: H4 cells, sodium-free HEPES buffer, 50 μM L-Cystine, 2 hours, Amplex Red glutamate readout; read-out: pIC50 Cystine-induced glutamate release assay (converted)
endpoint: IC50

{"compound": "CC(=O)N(C)c1nc2c(s1)-c1ccccc1CC(=O)N2CC(=O)Nc1ccc(C(F)(F)F)cc1 [#118]", "endpoint value": "100 to 501 nM"}

Ask | Identify measured IC50 associated with Cc1cc2c(c(C#N)n1)-c1cc(F)ccc1CC(=O)N2CC(=O)Nc1ccc(C(F)(F)F)cc1 [#127]
Reply | 39.8 to 100 nM

Ask | Identify measured IC50 associated with Cc1cc2c(c(F)n1)-c1cccnc1[C@@H](C)C(=O)N2CC(=O)Nc1ccc2c(cnn2C(F)F)c1 [#148]
Reply | 39.8 to 100 nM

Ask | Identify measured IC50 associated with Cc1cc2c(c(Cl)n1)-c1ccnn1C(C)C(=O)N2CC(=O)Nc1ccc(C(F)F)cc1 (single isomer, unassigned) [#386]
Reply | < 15.8 nM

Ask | Identify measured IC50 associated with Cc1cc2c(cn1)-c1cc(Cl)ccc1CC(=O)N2CC(=O)Nc1ccc(C(F)(F)F)cc1 [#30]
Reply | 100 to 501 nM

Ask | Identify measured IC50 associated with COc1nc(C)cc2c1-c1cnnn1CC(=O)N2CC(=O)Nc1ccc(C(F)(F)F)cc1 [#74]
Reply | 100 to 501 nM

Ask | Identify measured IC50 associated with Cc1cc2c(c(F)n1)-c1cccnc1[C@@H](CO)C(=O)N2CC(=O)Nc1ccc(C(F)(F)F)cc1 (single isomer, unassigned) [#206]
Reply | 39.8 to 100 nM

Ask | Identify measured IC50 associated with Cc1cc2c(c(Cl)n1)-c1cc(F)nn1C(C)C(=O)N2CC(=O)Nc1ccc(C(F)F)cc1 (single isomer, unassigned) [#389]
Reply | < 15.8 nM

Ask | Identify measured IC50 associated with Cc1cc2c(c(F)n1)-c1ccnnc1C(C)C(=O)N2CC(=O)Nc1ccc(C(F)F)cc1 (single isomer, unassigned) [#257]
Reply | 39.8 to 100 nM

Ask | Identify measured IC50 associated with O=C(CN1C(=O)Cc2ncccc2-c2c1cc(N1CC3(CC3)C1)nc2F)Nc1ccc(C(F)F)cc1 [#294]
Reply | 15.8 to 39.8 nM

Ask | Identify measured IC50 associated with Cc1cc2c(c(C(F)F)n1)-c1cccnc1C(C)C(=O)N2CC(=O)Nc1ccc(C(F)F)cc1 (single isomer, unassigned) [#301]
Reply | 39.8 to 100 nM

Ask | Identify measured IC50 associated with Cc1cc2c(c(F)n1)-c1cccnc1[C@@H](C)C(=O)N2CC(=O)Nc1ccc(C(F)F)c(F)c1 (single isomer, unassigned) [#235]
Reply | < 15.8 nM

Ask | Identify measured IC50 associated with CCOc1nc(C)cc2c1-c1cccnc1CC(=O)N2CC(=O)Nc1ccc(C(F)(F)F)cc1 [#82]
Reply | 100 to 501 nM

Ask | Identify measured IC50 associated with Cc1cc2c(c(F)n1)-c1cccnc1[C@@H](C)C(=O)N2CC(=O)Nc1ccc(C(C)(F)F)cc1 [#149]
Reply | 15.8 to 39.8 nM

Ask | Identify measured IC50 associated with COc1cc2c(cn1)-c1cccnc1C(C)C(=O)N2CC(=O)Nc1ccc(Cl)c(F)c1 (single isomer, unassigned) [#320]
Reply | 15.8 to 39.8 nM

Ask | Identify measured IC50 associated with COc1cc2c(c(F)n1)-c1ncccc1C(C)C(=O)N2CC(=O)Nc1ccc(Cl)c(F)c1 (single isomer, unassigned) [#413]
Reply | 39.8 to 100 nM

Ask | Identify measured IC50 associated with Cc1cc2c(c(=O)[nH]1)-c1ccccc1[C@@H](C)C(=O)N2CC(=O)Nc1ccc(C(F)(F)F)cc1 (single isomer, unassigned) [#205]
Reply | 15.8 to 39.8 nM

Ask | Identify measured IC50 associated with Cc1cc2c(cn1)-c1cnccc1CC(=O)N2CC(=O)Nc1ccc(C(F)(F)F)cc1 [#6]
Reply | 100 to 501 nM

Ask | Identify measured IC50 associated with CC1C(=O)N(CC(=O)Nc2ccc(Cl)c(F)c2)c2cc(C3(F)CC3)ncc2-c2cc(F)cnc21 (single isomer, unassigned) [#326]
Reply | < 15.8 nM
